inhibition listing for selected compounds.
- assay-comment: NOD1 signaling inhibitors, primary screen, cell-based, luminescence, uHTS (AID 1578);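 further: HEK-293T reporter cells stimulated with the NOD1 agonist gamma-tri-DAP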
- conditions: NOD1-driven NF-kB luciferase reporter cells, at 4 µM, hits give high values
In all, about 290,000 compounds went through this assay and about 3,000 (1%) were called active. This is one part of a sample in which actives are shown more often than they occur.
Give the number; % is assumed, so skip it.

Solved cases below.
Consider the compound CCOC(=O)c1cnc2c(C)c(Cl)ccc2c1N1CCOCC1 and give its recorded inhibition.
14.6

Consider the compound CCOc1ccc(S(=O)(=O)N(C)c2ccc(OCC(=O)NCCc3ccc(OC)cc3)cc2)cc1 and give its recorded inhibition.
-14

Consider the compound Cc1cc(Cl)ccc1OCC(=O)NCCCCc1ccccc1 and give its recorded inhibition.
-5.1

---
Consider the compound COc1ccc(-c2cc(CNC(=O)CCl)on2)cc1 and give its recorded inhibition.
54.5

Consider the compound CC(=O)NCc1cc(-c2ccc(Cl)cc2)no1 and give its recorded inhibition.
-35.1

Consider the compound c1ccc(CSc2nnc(Cc3ccccn3)o2)cc1 and give its recorded inhibition.
-32.5
